# Test system: apyrase
# test.description: Screen for apyrase inhibitors (Method 1, in vitro phosphate-release absorbance assay)
# Format: biochemical
# condition: inhibitor conc at 1 mM stock, 1 hr room temperature, absorbance 630 nm; rounded average of two assay results
metric: % Inhibition of Apyrase (%)

In [3]: df
Out[3]:
                                   compound  experimental_result
0  Cc1ccc(NC(=O)c2ccc(NS(=O)(=O)c3ccc(F)cc3)cc2)c(C)c1                   38
1  Cc1ccc(Cl)cc1NC(=O)c1ccc(S(=O)(=O)N2CCCc3ccccc32)cc1                   59
2  O=C(Nc1cccc([N+](=O)[O-])c1)c1cccc(S(=O)(=O)Nc2cccc([N+](=O)[O-])c2)c1                   21
3  COc1ccccc1C(=O)Nc1ccc(S(=O)(=O)Nc2ccc(Cl)cc2)cc1                   59

(1) COc1ccccc1N(C)S(=O)(=O)c1ccc(C(=O)N2CCCc3ccccc32)cc1
(2) O=C(c1ccc(NS(=O)(=O)c2cc(Cl)ccc2Cl)cc1)N1CCc2ccccc21
Which shows the larger % Inhibition of Apyrase value: 1 or 2 ? Your answer should be the label attached to the chosen record.
1
(1: 54%, 2: 10%)

(I) O=C(Nc1ccc(NS(=O)(=O)c2ccc3c(c2)OCCO3)cc1)c1cccc(N2CCCC2=O)c1
(II) O=C(Nc1cccc(Cl)c1)c1cccc(NS(=O)(=O)c2cccs2)c1
Given the two records I and II , choose the one whose % Inhibition of Apyrase value is lower. Your answer should be the label attached to the chosen record.
I

(A) O=C(Nc1ccc(SC(F)F)cc1)c1ccccc1S(=O)(=O)N1CCCCC1
(B) Cc1ccc(NC(=O)c2ccc(C(=O)Nc3ccc(C)cc3)cc2)cc1 [I-859, N1,N4-di-p-tolylterephthalamide]
Given the two records A and B , choose the one whose % Inhibition of Apyrase value is lower. Your answer should be the label attached to the chosen record.
A
(A: 44%, B: 72%)

(A) Cc1occc1C(=O)Nc1cccc(S(=O)(=O)Nc2cccc(C(F)(F)F)c2)c1
(B) N#Cc1cc(C(=O)Nc2cccc(NS(=O)(=O)c3ccccc3)c2)ccc1Cl
Given the two records A and B , choose the one whose % Inhibition of Apyrase value is lower. Your answer should be the label attached to the chosen record.
A
(A: 44%, B: 73%)

---

# System: apyrase
# test.description: Screen for apyrase inhibitors (Method 1, in vitro phosphate-release absorbance assay)
# Type: biochemical
# condition: inhibitor conc at 1 mM stock, 1 hr room temperature, absorbance 630 nm; rounded average of two assay results
metric: % Inhibition of Apyrase (%)

In the examples that follow, each entry is paired with its recorded % Inhibition of Apyrase.
                                   molecule                   metric  units_text  experimental_result
0  Cc1ccc(NS(=O)(=O)c2ccc(Cl)c(C(=O)N3CCc4ccccc43)c2)cc1C [I-459]  % Inhibition of Apyrase           %                   60
1  Cc1cnc(NC(=O)c2cccc(NS(=O)(=O)c3ccc(Cl)c(Cl)c3)c2)[nH]1 [I-633]  % Inhibition of Apyrase           %                   60
2  NC(=O)c1ccc(NC(=O)c2cccc(S(=O)(=O)N3CCc4ccccc43)c2)cc1 [I-607]  % Inhibition of Apyrase           %                   16
3  O=C(Nc1cccc([N+](=O)[O-])c1)c1ccc(Br)c(S(=O)(=O)Nc2ccccc2)c1 [I-34]  % Inhibition of Apyrase           %                   18

(A) Cc1ccc(N(C)S(=O)(=O)c2cccc(C(=O)N3CCc4ccccc43)c2)cc1 [I-558]
(B) COc1ccc([N+](=O)[O-])cc1NC(=O)c1cccc(S(=O)(=O)Nc2ccc(Cl)cc2)c1 [I-41]
Which shows the larger % Inhibition of Apyrase value: A or B ? Your answer should be the label attached to the chosen record.
A
(A: 52%, B: 13%)
